Value source: ChEMBL document CHEMBL1153693

assay: Aqueous solubility was determined; format: physicochemical
READOUT: solubility (µM)

| COMPOUND_STRING | READOUT | OUTPUT_UNIT | EXPERIMENTAL_VALUE |
| --- | --- | --- | --- |
| COC1(C(=N)/C=C(\O)OCc2ccc3c(c2)OCC(=O)N3C)CCOCC1 | solubility | µM | 25 |
| COC1(C(=N)/C=C(\O)OCc2ccc3c(ccc(=O)n3C)c2)CCOCC1 | solubility | µM | 150 |

(I) COC1(c2cc(F)cc(OCc3ccc4c(ccc(=O)n4C)c3)c2)CCOCC1
(II) COC1(C(=N)/C=C(\O)OCc2ccc3ccccc3c2)CCOCC1
I'm curious whether I or II has the smaller solubility number. Which is it? Reply briefly: the label of your chosen item.
I
(I: 3.8 µM, II: 50 µM)
